These entries and their values trace back to ChEMBL document CHEMBL1275394.

Assay: Inhibition of HIV NL4-3 recombinant histidine-tagged integrase strand transfer activity expressed in Escherichia coli BL21 (DE3)
Design: species or system Human immunodeficiency virus
pIC50: −log10 of the molar value.
Y means recorded pIC50 is 6 or above; N means it is below 6.

Item O=C(/C=C/c1ccc(O)c(O)c1)O[C@@H](C(=O)O)[C@@H](O)C(=O)O [CAFTARIC ACID] with pIC50 of 6 or above?
N

Item O=C(/C=C/c1ccc(O)c(O)c1)O[C@@H](C(=O)O)[C@@H](OC(=O)/C=C/c1ccc(O)c(O)c1)C(=O)O [CICHORIC ACID] with pIC50 of 6 or above?
Y

Item `O=C(O)C(=O)CC(=O)c1cccn1Cc1ccc(F)cc1` with pIC50 of 6 or above?
Y

Item `O=C(O[C@@H](C(=O)O)[C@@H](OC(=O)c1cccn1Cc1ccc(F)cc1)C(=O)O)c1cccn1Cc1ccc(F)cc1` with pIC50 of 6 or above?
N

More entries:
Item O=C(/C=C/c1cc(O)c(O)c(O)c1)OC(c1nnn[nH]1)C(OC(=O)/C=C/c1cc(O)c(O)c(O)c1)c1nnn[nH]1 (single isomer, unassigned) with pIC50 of 6 or above?
Y
